test system: HepG2; assay: Cytotoxicity against human HepG2 cells assessed as inhibition of cell growth incubated for 48 hrs by MTT assay; assay type: functional, cell-based; conditions: HepG2, 48 h
observation type: IC50

Here are 2 compounds together with their reported answers.
- entry smiles: "O=C(/C=C/c1nc(-c2ccc(C(F)(F)F)cc2)n2ccccc12)c1ccc(Cl)c(Cl)c1"
  IC50: "> 50 µM"
- entry smiles: "O=C(/C=C/c1nc(-c2ccc(C(F)(F)F)cc2)n2ccccc12)c1ccc(F)c(F)c1"
  IC50: "> 50 µM"

Now let's try a different one.
Asked: Name the reported IC50 value associated with the compound COc1ccc(C(=O)/C=C/c2nc(-c3ccc(F)cc3)n3ccccc23)cc1OC
Given back: > 50 µM

* * *

assay: Selectivity ratio of IC50 for HEK cells to IC50 for human MDA-MB-231 cells; format: toxicity; conditions: HEK cells versus MDA-MB-231 cells, read-out: Ratio IC50
Measured selectivity ratio, listed per entry.
Could you keep your reply to the number by itself?

- entry smiles: "COc1cc(C(=O)/C=C/c2nc(-c3ccc(Cl)cc3)n3ccccc23)cc(OC)c1OC"
  observed value: 11

From here, focus on the item given below.
Asked: Can you share its selectivity ratio? I mean this compound: O=C(/C=C/c1nc(-c2ccc(Cl)cc2)n2ccccc12)c1ccc(Cl)c(Cl)c1
Given back: 19

* * *

test: Selectivity ratio of IC50 for HEK cells to IC50 for human PC-3 cells; type: toxicity; details: HEK cells versus PC-3 cells, read-out: Ratio IC50
# selectivity ratio per entry
Reply briefly: the number, and no unit.

Asked: Which selectivity ratio is reported for this molecule? COc1cc(C(=O)/C=C/c2nc(-c3ccc(Cl)cc3)n3ccccc23)cc(OC)c1OC
Given back: 3

Asked: Looking for the measured selectivity ratio of O=C(/C=C/c1nc(-c2ccc(Cl)cc2)n2ccccc12)c1ccc(Cl)c(Cl)c1 , can you help?
Given back: 4

* * *

tested on: HepG2; test: Cytotoxicity against human HepG2 cells assessed as inhibition of cell growth incubated for 48 hrs by MTT assay; type: functional, cell-based; settings: HepG2, 48 h
pIC50: −log10 of the molar value.
observation type: pIC50

Examples from the recorded data:
- entry smiles: "O=C(/C=C/c1nc(-c2ccc(Cl)cc2)n2ccccc12)c1ccc(Cl)c(Cl)c1"
  measurement target: "HepG2"
  pIC50: 5.34
- entry smiles: "O=C(/C=C/c1nc(-c2ccc(F)cc2)n2ccccc12)c1ccc(Cl)c(Cl)c1"
  measurement target: "HepG2"
  pIC50: "< 4.30"
- entry smiles: "COc1cc(C(=O)/C=C/c2nc(-c3ccc(F)cc3)n3ccccc23)cc(OC)c1OC"
  measurement target: "HepG2"
  pIC50: "< 4.30"
- entry smiles: "COc1cc(C(=O)/C=C/c2nc(-c3ccc(Cl)cc3)n3ccccc23)cc(OC)c1OC"
  measurement target: "HepG2"
  pIC50: 4.68

Asked: Which pIC50 is listed for O=C(/C=C/c1nc(-c2ccc(F)cc2)n2ccccc12)c1ccc(F)c(F)c1 ?
Given back: < 4.30

Asked: So what's the measured pIC50 for this one? COc1ccc(C(=O)/C=C/c2nc(-c3ccc(Cl)cc3)n3ccccc23)cc1OC
Given back: < 4.30
